- testedTarget: T1, human PVRIG-his (AcroBiosystems, Cat NO. PVG-H52H4) (human, UniProt Q6DKI7 41-171, limits assumed)
- T1 construct: also called human PVRIG protein
- T1 sequence (looked up): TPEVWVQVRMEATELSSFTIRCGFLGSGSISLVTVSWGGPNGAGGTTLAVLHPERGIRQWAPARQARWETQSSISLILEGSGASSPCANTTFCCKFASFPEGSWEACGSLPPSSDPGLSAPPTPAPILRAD
- protocolText: competition ELISA, PVRIG-His coated, competitor human PVRL2-mFc
measuredEndpoint: % relative activity (IC50) parental antibody/test antibody (%)
Numbers only, in %.

Please state, for each entry, its recorded % relative activity (IC50) parental antibody/test antibody.
1. PVRIG-A50-H1 (Fc fusion, humanized variant of PVRIG-A50; also called A50.VH1; not shown: constant part not restated for the humanized forms; parents are VHH-hinge-CH2-CH3 of human IgG1; detected by anti-human) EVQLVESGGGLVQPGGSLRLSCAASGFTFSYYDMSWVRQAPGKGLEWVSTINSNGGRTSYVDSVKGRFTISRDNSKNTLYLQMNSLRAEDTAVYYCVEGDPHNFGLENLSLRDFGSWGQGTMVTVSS
2. PVRIG-A50-H1e (Fc fusion, humanized variant of PVRIG-A50; also called VH1e; not shown: constant part not restated for the humanized forms; parents are VHH-hinge-CH2-CH3 of human IgG1; detected by anti-human) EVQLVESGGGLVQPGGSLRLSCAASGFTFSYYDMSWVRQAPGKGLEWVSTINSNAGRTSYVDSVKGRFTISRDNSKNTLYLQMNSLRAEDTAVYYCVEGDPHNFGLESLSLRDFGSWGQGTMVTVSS

1. 77.5
2. 79.5
